Biological target: KAT5 Full length enzyme (Homo sapiens (Human), UniProt Q92993)
Sequence (Q92993 whole entry): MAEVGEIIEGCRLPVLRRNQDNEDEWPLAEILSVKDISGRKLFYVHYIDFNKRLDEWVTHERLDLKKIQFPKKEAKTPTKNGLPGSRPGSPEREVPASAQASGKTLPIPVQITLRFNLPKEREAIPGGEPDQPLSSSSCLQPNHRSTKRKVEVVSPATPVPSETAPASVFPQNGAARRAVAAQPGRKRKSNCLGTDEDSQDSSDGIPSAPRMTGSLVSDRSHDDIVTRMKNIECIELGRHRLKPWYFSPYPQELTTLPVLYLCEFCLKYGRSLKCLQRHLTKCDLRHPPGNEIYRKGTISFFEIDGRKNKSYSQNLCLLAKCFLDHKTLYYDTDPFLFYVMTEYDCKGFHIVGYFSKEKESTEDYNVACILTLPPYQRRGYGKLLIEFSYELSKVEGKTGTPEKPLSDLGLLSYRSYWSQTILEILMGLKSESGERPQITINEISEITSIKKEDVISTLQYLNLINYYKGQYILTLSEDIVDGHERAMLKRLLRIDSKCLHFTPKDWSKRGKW
Experiment: KAT5 assay (SAMDI-MS acetylation of H4 1-21 peptide)
Assay type: biochemical
Settings: Morrison equation fit; replicate number in parentheses; read-out: KAT5 Ki (nM) (replicate number)
Label t when Ki is strictly below 900 nM; at or above that, label f.

Worked set:
Smiles string | Qualitative label
COc1cccc(OC)c1S(=O)(=O)Nc1noc2cc(NC3CCC3)cc(OC)c12 | f
COc1cc2c(NS(=O)(=O)c3c(OC)cccc3OC)noc2cc1Nc1cc(Cl)n[nH]1 | t

[ask] I wonder whether `COc1cc2c(NS(=O)(=O)c3c(OC)cc(-c4ncccn4)cc3OC)noc2cc1Nc1cc(C2CC2)n[nH]1` has Ki below 900 nM. Can you tell?
[reply] t

[ask] I wonder whether `CCn1cnc(Nc2cc3onc(NS(=O)(=O)c4c(OC)cccc4OC)c3cc2OC)n1` has Ki below 900 nM. Can you tell?
[reply] f

[ask] I wonder whether `COc1cc2c(NS(=O)(=O)c3ccccc3OC)noc2cc1Nc1cc(C)n[nH]1` has Ki below 900 nM. Can you tell?
[reply] t

[ask] I wonder whether `COc1cc2c(NS(=O)(=O)c3c(OC)cccc3OC)noc2cc1Nc1cc(C(C)(F)F)n[nH]1` has Ki below 900 nM. Can you tell?
[reply] t

[ask] I wonder whether `CCOc1cc(C)ccc1S(=O)(=O)Nc1noc2cc(Nc3cc(C(C)C)[nH]n3)c(OC)cc12` has Ki below 900 nM. Can you tell?
[reply] t

[ask] I wonder whether `COc1cc2c(NS(=O)(=O)c3cc4ccccc4cc3OC)noc2cc1Nc1cc(C2CC2)n[nH]1` has Ki below 900 nM. Can you tell?
[reply] t

###

Entries and their Ki values follow.
Molecular target: KAT7+JADE1+EAF6+ING5 4 protein complex (Homo sapiens (Human), UniProt O95251)
Test: KAT7 JADE1 assay (SAMDI-MS acetylation of H3 1-21 peptide)
Format: biochemical
Details: Morrison equation fit; replicate number in parentheses; read-out: KAT7 JADE1 Ki (nM) (replicate number)
Give the value in nM but do not write nM after it.

Recorded results for 3 compounds are shown here.
Compound | Property | Observed
COc1cc2c(NS(=O)(=O)c3c(OC)cc(C4CCN([C@H]5CCOC5)C4)cc3OC)noc2cc1Nc1cc(C2CC2)n[nH]1 (single isomer, unassigned) [Example 162] | Ki | 8.9
CCc1cc(Nc2cc3onc(NS(=O)(=O)c4cc(F)ccc4Br)c3cc2OC)n[nH]1 | Ki | 156
COc1cc2c(NS(=O)(=O)c3c(OC)cccc3OC)noc2cc1Nc1cc([C@@H](C)O)n[nH]1 (single isomer, unassigned) | Ki | 1230

Looking up `COc1cc2c(NS(=O)(=O)c3c(OC)cc(-c4ncco4)cc3OC)noc2cc1Nc1cc(C2CC2)n[nH]1` , I see its Ki listed as 12.8

Looking up COc1cc2c(NS(=O)(=O)c3c(OC)cc(C4CC(F)CCN4C)cc3OC)noc2cc1Nc1cc(C2CC2)[nH]n1 (stereo not shown) [Example 192] , I see its Ki listed as 22.2

Looking up `COc1cc2c(NS(=O)(=O)c3c(OC)cccc3OC)noc2cc1Nc1n[nH]c(C)n1` , I see its Ki listed as 501

###

Molecular target: KAT7+JADE1+EAF6+ING5 4 protein complex (Homo sapiens (Human), UniProt O95251)
Test: KAT7 JADE1 assay (SAMDI-MS acetylation of H3 1-21 peptide)
Assay type: biochemical
Conditions: Morrison equation fit; replicate number in parentheses; read-out: KAT7 JADE1 Ki (nM) (replicate number)
Entries and their log10(Ki) values follow.
// stored as log10 of Ki expressed in nM

Recorded results for 10 compounds are shown here.
Compound | Property | Observed
COc1cc2c(NS(=O)(=O)c3c(OC)cc(CN4CC[C@@H](F)C4)cc3OC)noc2cc1Nc1cc(C2CC2)n[nH]1 | log10(Ki) | 0.61
CCc1cc(Nc2cc3onc(NS(=O)(=O)c4ccc(C(=O)NCCCCCNC(=O)c5ccc(-c6nnc(C)nn6)cc5)cc4OC)c3cc2OC)[nH]n1 | log10(Ki) | 1.61
CCOc1ccccc1S(=O)(=O)Nc1noc2cc(Nc3cc[nH]n3)c(OC)cc12 | log10(Ki) | 2.46
CCc1cc(Nc2cc3onc(NS(=O)(=O)c4cc(Cl)ccc4Cl)c3cc2OC)n[nH]1 | log10(Ki) | 2.27
CCc1cc(Nc2cc3onc(NS(=O)(=O)c4c(OC)cc(-c5ccn(C)n5)cc4OC)c3cc2OC)[nH]n1 | log10(Ki) | 0.36
COc1cc2c(NS(=O)(=O)c3c(OC)cccc3OC)noc2cc1Nc1cc[nH]n1 | log10(Ki) | 2.02
COc1cc2c(NS(=O)(=O)c3c(OC)cc(C4CN(C)CCC4(F)F)cc3OC)noc2cc1Nc1cc(C2CC2)[nH]n1 (stereo not shown) | log10(Ki) | -0.70
CCc1cc(Nc2cc3onc(NS(=O)(=O)c4cccc(Oc5ccc(C)cc5)c4)c3cc2OC)n[nH]1 | log10(Ki) | 2.37
COc1cc2c(NS(=O)(=O)c3c(OC)cc(CN4CCCC(F)(F)C4)cc3OC)noc2cc1Nc1cc(C2CC2)n[nH]1 | log10(Ki) | 0.72
COc1cc2c(NS(=O)(=O)c3ccccc3OC)noc2cc1Nc1cc[nH]n1 | log10(Ki) | 2.48

Looking up `COc1cc2c(NS(=O)(=O)c3c(OC)cc(-c4ncc5c(n4)CN(C)CC5)cc3OC)noc2cc1Nc1cc(C2CC2)n[nH]1` , I see its log10(Ki) listed as 0.85

Looking up `COc1cc2c(NS(=O)(=O)c3c(OC)cc(-c4ccc(C)nn4)cc3OC)noc2cc1Nc1cc(C2CC2)n[nH]1` , I see its log10(Ki) listed as 0.28

Looking up `CCc1ccc(S(=O)(=O)Nc2noc3cc(Nc4cc(CC)[nH]n4)c(OC)cc23)cc1` , I see its log10(Ki) listed as 1.97

Looking up `COc1cccc(OC)c1S(=O)(=O)Nc1noc2cc(Nc3ccccn3)cc(OC)c12` , I see its log10(Ki) listed as 2.39

Looking up COc1cc2c(NS(=O)(=O)c3c(OC)cc(C4COCCN4C)cc3OC)noc2cc1Nc1cc(C2CC2)[nH]n1 (single isomer, unassigned) [Example 179] , I see its log10(Ki) listed as 0.93

Looking up `COc1cccc(OC)c1S(=O)(=O)Nc1noc2cc(NC3CCC3)cc(OC)c12` , I see its log10(Ki) listed as 2.86

Looking up `CCc1cc(Nc2cc3onc(NS(=O)(=O)c4c(OC)cc(-c5ccc(C)nn5)cc4OC)c3cc2OC)[nH]n1` , I see its log10(Ki) listed as 0.78

Looking up `COc1cc2c(NS(=O)(=O)c3c(OC)cccc3OC)noc2cc1Nc1ncccn1` , I see its log10(Ki) listed as 3.16

Looking up `COc1cc2c(NS(=O)(=O)c3cc4c(cc3OC)CCCC4)noc2cc1Nc1cc(C)n[nH]1` , I see its log10(Ki) listed as 1.50

Looking up `COc1cc2c(NS(=O)(=O)c3c(OC)cc([C@@H]4COCCO4)cc3OC)noc2cc1Nc1cc(C2CC2)n[nH]1` , I see its log10(Ki) listed as 0.96

Looking up COc1cc2c(NS(=O)(=O)c3c(OC)cc(C(C)N4CCOCC4)cc3OC)noc2cc1Nc1cc(C2CC2)n[nH]1 (single isomer, unassigned) [Example 207] , I see its log10(Ki) listed as 1.06

Looking up `CCc1cc(Nc2cc3onc(NS(=O)(=O)c4c(OC)cc(-c5nccc(C)n5)cc4OC)c3cc2OC)[nH]n1` , I see its log10(Ki) listed as 0.95

Looking up COc1cc2c(NS(=O)(=O)c3c(OC)cc(C4COCC(C)(C)O4)cc3OC)noc2cc1Nc1cc(C2CC2)n[nH]1 (single isomer, unassigned) [Example 184] , I see its log10(Ki) listed as 0.67

Looking up `COc1cc2c(NS(=O)(=O)c3c(OC)cc([C@@H]4CCCN4C)cc3OC)noc2cc1Nc1cc(C2CC2)n[nH]1` , I see its log10(Ki) listed as 1.32

Looking up `COc1cc2c(NS(=O)(=O)c3cc(C(C)C)c(C)cc3OC)noc2cc1Nc1cc[nH]n1` , I see its log10(Ki) listed as 2.31

###

Molecular target: KAT6A Full length enzyme (Homo sapiens (Human), UniProt Q92794)
Sequence (Q92794 other isoform, or with tags, fused parts or gaps): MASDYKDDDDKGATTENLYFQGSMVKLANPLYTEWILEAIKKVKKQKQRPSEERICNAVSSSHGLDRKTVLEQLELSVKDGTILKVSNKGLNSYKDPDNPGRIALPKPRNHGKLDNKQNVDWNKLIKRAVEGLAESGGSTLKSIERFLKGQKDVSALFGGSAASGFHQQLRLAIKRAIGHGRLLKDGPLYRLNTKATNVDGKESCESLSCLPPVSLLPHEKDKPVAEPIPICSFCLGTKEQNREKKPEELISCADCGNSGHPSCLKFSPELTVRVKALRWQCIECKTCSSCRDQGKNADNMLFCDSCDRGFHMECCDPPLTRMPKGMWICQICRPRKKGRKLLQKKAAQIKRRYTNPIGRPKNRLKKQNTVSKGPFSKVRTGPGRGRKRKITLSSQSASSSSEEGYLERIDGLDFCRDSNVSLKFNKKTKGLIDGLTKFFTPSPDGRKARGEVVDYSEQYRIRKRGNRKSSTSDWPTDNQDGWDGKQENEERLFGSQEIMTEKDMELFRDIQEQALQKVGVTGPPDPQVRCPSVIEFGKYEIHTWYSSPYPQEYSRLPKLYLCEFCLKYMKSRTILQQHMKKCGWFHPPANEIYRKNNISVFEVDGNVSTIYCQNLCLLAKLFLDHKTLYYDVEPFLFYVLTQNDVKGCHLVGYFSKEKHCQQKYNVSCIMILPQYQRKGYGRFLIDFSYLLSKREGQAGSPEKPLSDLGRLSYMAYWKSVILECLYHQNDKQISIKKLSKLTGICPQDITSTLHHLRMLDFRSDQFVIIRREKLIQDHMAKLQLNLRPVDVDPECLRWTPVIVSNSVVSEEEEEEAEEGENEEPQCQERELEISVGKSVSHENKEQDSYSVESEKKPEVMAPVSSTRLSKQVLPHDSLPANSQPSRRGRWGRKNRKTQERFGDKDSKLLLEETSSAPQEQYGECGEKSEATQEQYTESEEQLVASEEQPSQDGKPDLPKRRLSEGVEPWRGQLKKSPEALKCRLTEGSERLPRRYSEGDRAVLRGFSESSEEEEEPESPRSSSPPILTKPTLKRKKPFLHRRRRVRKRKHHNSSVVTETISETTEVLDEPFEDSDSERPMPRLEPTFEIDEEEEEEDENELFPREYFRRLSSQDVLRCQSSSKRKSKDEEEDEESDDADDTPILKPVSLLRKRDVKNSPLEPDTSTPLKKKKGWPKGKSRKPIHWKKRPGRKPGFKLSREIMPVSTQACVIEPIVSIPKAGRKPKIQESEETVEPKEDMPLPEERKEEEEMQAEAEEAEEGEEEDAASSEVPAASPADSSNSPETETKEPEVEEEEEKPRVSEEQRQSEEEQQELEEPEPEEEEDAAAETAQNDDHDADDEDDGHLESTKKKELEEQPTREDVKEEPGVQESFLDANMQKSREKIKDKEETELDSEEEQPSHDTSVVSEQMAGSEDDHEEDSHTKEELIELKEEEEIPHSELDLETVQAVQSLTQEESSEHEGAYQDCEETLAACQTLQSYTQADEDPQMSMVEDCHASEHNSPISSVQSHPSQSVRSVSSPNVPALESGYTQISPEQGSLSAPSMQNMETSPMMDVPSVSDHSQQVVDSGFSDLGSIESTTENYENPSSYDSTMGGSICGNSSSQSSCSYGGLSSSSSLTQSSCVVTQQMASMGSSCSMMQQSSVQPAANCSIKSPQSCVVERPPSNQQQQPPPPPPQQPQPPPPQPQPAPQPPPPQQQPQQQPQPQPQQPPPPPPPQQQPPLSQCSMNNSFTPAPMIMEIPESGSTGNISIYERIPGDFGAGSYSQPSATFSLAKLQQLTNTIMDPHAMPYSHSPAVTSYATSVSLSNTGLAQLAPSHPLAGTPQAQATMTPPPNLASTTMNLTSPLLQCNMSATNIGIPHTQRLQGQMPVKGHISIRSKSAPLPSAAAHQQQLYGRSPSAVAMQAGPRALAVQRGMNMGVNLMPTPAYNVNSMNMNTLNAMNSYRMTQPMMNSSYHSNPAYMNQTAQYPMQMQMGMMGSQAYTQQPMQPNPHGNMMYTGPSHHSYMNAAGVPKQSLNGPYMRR
Assay: KAT6A assay (SAMDI-MS acetylation of H3 1-21 peptide)
Type: biochemical
Details: replicate number in parentheses; read-out: KAT6A Ki (nM) (replicate)
Label met when Ki is strictly below 0.7 nM; at or above that, label not met.

Molecule | Target system | Qualitative label
COc1cc2c(NS(=O)(=O)c3c(OC)cc(C4CCO4)cc3OC)noc2cc1Nc1cc(C2CC2)n[nH]1 (stereo not shown) [Example 276] | KAT6A Full length enzyme (Homo sapiens (Human), UniProt Q92794) | not met

[ask] I wonder whether COc1cc2c(NS(=O)(=O)c3c(OC)cc(N(C)C4CCOC4)cc3OC)noc2cc1Nc1cc(C2CC2)[nH]n1 (stereo not shown) [Example 247] has Ki below 0.7 nM. Can you tell?
[reply] met

[ask] I wonder whether COc1cc2c(NS(=O)(=O)c3c(OC)cc(C(=O)N4CCC[C@@H](F)C4)cc3OC)noc2cc1Nc1cc(C2CC2)n[nH]1 [Example 260] has Ki below 0.7 nM. Can you tell?
[reply] not met

[ask] I wonder whether COc1cc2c(NS(=O)(=O)c3c(OC)cc(N4CCCC4=O)cc3OC)noc2cc1Nc1cc(C2CC2)n[nH]1 [Example 246] has Ki below 0.7 nM. Can you tell?
[reply] not met

[ask] I wonder whether COCC(OC)c1cc(OC)c(S(=O)(=O)Nc2noc3cc(Nc4cc(C5CC5)[nH]n4)c(OC)cc23)c(OC)c1 (single isomer, unassigned) [Example 274] has Ki below 0.7 nM. Can you tell?
[reply] not met

[ask] I wonder whether COc1cc2c(NS(=O)(=O)c3c(OC)cc(C(=O)N4CCC(F)(F)CC4)cc3OC)noc2cc1Nc1cc(C2CC2)n[nH]1 [Example 263] has Ki below 0.7 nM. Can you tell?
[reply] not met

[ask] I wonder whether COc1cc2c(NS(=O)(=O)c3c(OC)cc(N4CC[C@@H](F)C4)cc3OC)noc2cc1Nc1cc(C2CC2)n[nH]1 [Example 249] has Ki below 0.7 nM. Can you tell?
[reply] met

[ask] I wonder whether COCC(OC)c1cc(OC)c(S(=O)(=O)Nc2noc3cc(Nc4cc(C5CC5)[nH]n4)c(OC)cc23)c(OC)c1 (single isomer, unassigned) [Example 275] has Ki below 0.7 nM. Can you tell?
[reply] not met

[ask] I wonder whether COc1cc2c(NS(=O)(=O)c3c(OC)cc(C(C)(C)OC)cc3OC)noc2cc1Nc1cc(C2CC2)n[nH]1 [Example 271] has Ki below 0.7 nM. Can you tell?
[reply] not met

[ask] I wonder whether COc1cc2c(NS(=O)(=O)c3c(OC)cc(N4CC[C@@H](OC)C4)cc3OC)noc2cc1Nc1cc(C2CC2)n[nH]1 [Example 250] has Ki below 0.7 nM. Can you tell?
[reply] met

[ask] I wonder whether COc1cc2c(NS(=O)(=O)c3c(OC)cc(C(=O)N4CCC[C@H](F)C4)cc3OC)noc2cc1Nc1cc(C2CC2)n[nH]1 [Example 261] has Ki below 0.7 nM. Can you tell?
[reply] not met

[ask] I wonder whether COCc1cc(OC)c(S(=O)(=O)Nc2noc3cc(Nc4cc(C5CC5)n[nH]4)c(OC)cc23)c(OC)c1 [Example 270] has Ki below 0.7 nM. Can you tell?
[reply] not met
